Assay: folding stability dG unfold from chymotrypsin proteolysis; higher = more stable
Record form. Attribute: folding stability dG unfold. Fill in for each entry.
Just the number please, in kcal/mol, no unit attached.

// folding stability dG unfold lookup, sequence = SAEKEYKVKVKVKIEIVELSEEELENLPPGALVIEVDGKLYLMRIEVEEVEVEEVPEEPEVDEETGELLSAG [r14_126_TrROS_Hall] , result: 3.86

// folding stability dG unfold lookup, sequence = SAGMMRVEVFGDGELLEVTELDGDTVEVPVPPERHRVRVFAPGDDRAAEAEVDPAKGVVVLKVPADARISAG [r5_469_TrMRF] , result: -0.197

Briefly, folding stability dG unfold measured for SAKTVKVRIELTLTVVKVTLDPETGELKVEEVKTLTLEIELEMSEEDLEKARRALEEELKRLLEELGIPSAG [r14_308_TrROS_Hall] : 3.78

Noted for SAGGSAGGSPVPVKVEKKPTKENKELIITYYPDGKVRVTTYTYDENGNKISEKEEIIPKSEVKLSAGGSAGG [r6_579_JUSTAS] : its folding stability dG unfold reads 1.58

// recorded folding stability dG unfold for SAGGETVTITIKVKGKEITVTFNKDTGKVTITDKDTGKTVTITLPAGEEPTLEELLEALKKLGFEIEPSAGG [r13_687_TrROS_Hall] : 4.18

Recorded result, SAGGSAGGSAGGMLILVEVNGEKRLLEADSLEDALAKLPPGATVTRVEIFEVEEVELPESAGGSAGGSAGGS [r10_13_TrROS_Hall] , folding stability dG unfold: 2

Sample SAGGSAGGSAGMEVILLEVDSEEEAEKLVKELSEKYGYPVKVEKDPENPKLVTLTIEKPKSAGGSAGGSAGG [r11_797_JUSTAS] ; folding stability dG unfold observed: 1.16

Where these numbers come from: the supplement of paper PMC12764529
